# System: NAD(P)H diaphorase (Clostridium kluyveri)
# protocolDescription: Diaphorse counterscreen qHTS: Assay Interference Panel against the NCATS CANVASS Library (AID 1347362); also: 0% is about no effect
# condition: Diaphorase enzyme, resazurin to resorufin fluorescence; series mostly up to 57.5 µM
Records with an inconclusive call do not appear. Active and inactive are the calls of the source. Calls follow the shape of the dose curve; as a rule, active = well fitted inhibition curve with a large enough effect; inconclusive = small, poorly fitted or top-dose-only effect; inactive = flat fitted curve, though single readings scatter.

{"compound": "Oc1ccc(C2Oc3cc(O)c4c(c3[C@@H]2c2cc(O)cc(O)c2)[C@H]2C(c3ccc(O)cc3)c3c(O)cc5c(c3[C@H]2C4c2ccc(O)cc2)[C@H](c2cc(O)cc(O)c2)C(c2ccc(O)cc2)O5)cc1 (stereo partly drawn)", "outcome": "inactive"}
{"compound": "COc1cc(C2C3=C(Cc4cc5c(cc42)OCO5)C(=O)OC3)cc(OC)c1OC (stereo not drawn)", "outcome": "inactive"}
{"compound": "CC(C)=CCC[C@]1(C)[C@H]2CC(=O)[C@@]3(CO3)[C@@H]1C2", "outcome": "inactive"}

----------
# protocolDescription: qHTS Assay for Lipid Storage Modulators (AID 1519)
# condition: Drosophila S3 cells, BODIPY lipid droplet/cell ratio, laser cytometry; measured here: cell count channel max response; cells loaded with oleic acid
Inconclusive results are not listed.
Hi there, I'd appreciate the recorded max response for every entry that follows.
Use % as the unit, but write only the number.

Would you mind telling me what max response value was observed for O=C(c1ccncc1)N1CCC[C@@]2(CCN(c3ncccn3)C2)C1 ?
21.2

Would you mind telling me what max response value was observed for Clc1ccccc1-c1nccc(NCc2cccs2)n1 ?
8.1

Would you mind telling me what max response value was observed for COc1ccccc1-c1cncnc1NCc1cccnc1 ?
11.1

Would you mind telling me what max response value was observed for Cc1noc(C)c1C(=O)N1CCC[C@@]2(CCN(c3ncccn3)C2)C1 ?
7.95

Would you mind telling me what max response value was observed for COc1cccc(Nc2ncc3nc(C)c(=O)n(CCc4ccccc4)c3n2)c1 ?
-10.5

Would you mind telling me what max response value was observed for COCCn1c(=O)c(-c2ccc(F)cc2)nc2cnc(N3CCOCC3)nc21 ?
15.7

Would you mind telling me what max response value was observed for COc1ccc(Oc2ncc3nc(-c4ccc(Cl)cc4)c(=O)n(C[C@H]4CCCO4)c3n2)cc1 ?
-25.3

Would you mind telling me what max response value was observed for COCCn1c(=O)cnc2cnc(Nc3cccc(OC)c3)nc21 ?
-13.4

Would you mind telling me what max response value was observed for COc1ccc(CNc2ncnc3ccc(-c4cccc(C#N)c4)cc23)c(OC)c1 ?
-6.85

Would you mind telling me what max response value was observed for COCCNc1cc(-c2ccccc2C)ncn1 ?
3.79

Would you mind telling me what max response value was observed for COc1ccc(CNc2ncnc3ccc(-c4cccc(NS(C)(=O)=O)c4)cc23)c(OC)c1 ?
-8.13

Would you mind telling me what max response value was observed for CN(C)C(=O)c1ccc(-c2cncnc2N2CCNCC2)cc1 ?
16.8

Would you mind telling me what max response value was observed for COc1cccc(-c2ccc3ncnc(NC4CCNCC4)c3c2)c1 ?
-3.29

Would you mind telling me what max response value was observed for CN1CCN(c2ncc3nc(-c4cc(F)cc(F)c4)c(=O)n(CCc4ccccc4)c3n2)CC1 ?
10.6

Would you mind telling me what max response value was observed for O=c1c(CCc2ccccc2)nc2cnc(N3CCOCC3)nc2n1Cc1cccs1 ?
7.22

Would you mind telling me what max response value was observed for Cn1c(=O)c(-c2cccc(C#N)c2)nc2cnc(Oc3ccccc3)nc21 ?
16.1

Would you mind telling me what max response value was observed for COc1ccc2[nH]cc(CCNc3ncncc3-c3c(C)noc3C)c2c1 ?
11.1

Would you mind telling me what max response value was observed for O=C(c1cccc(F)c1)N1CCC[C@@]2(CCN(c3ccncc3)C2)C1 ?
20

Would you mind telling me what max response value was observed for O=C(c1cccc(F)c1)N1CCC2(CC1)CCN(c1ccccc1)CC2 ?
-3.82

Would you mind telling me what max response value was observed for Cc1ccccc1-c1cncnc1N(C)Cc1ccco1 ?
-7.61

Would you mind telling me what max response value was observed for CC(C)NC(=O)N1CC[C@@]2(CCCN(C(=O)c3cccn3C)C2)C1 ?
-17.7

Would you mind telling me what max response value was observed for CS(=O)(=O)N1CCC[C@@]2(CCN(c3ccccn3)C2)C1 ?
-1.27

Would you mind telling me what max response value was observed for CS(=O)(=O)N1CCC2(CC1)CN(c1cccc(-c3ccccc3)c1)C2 ?
-11.7

Would you mind telling me what max response value was observed for COc1cccc(Nc2ncc3ncc(=O)n(CCc4ccccc4)c3n2)c1 ?
-10.9

Would you mind telling me what max response value was observed for COc1ccccc1CN1CC[C@@]2(CCCN(C(=O)c3cccn3C)C2)C1 ?
9.96

Would you mind telling me what max response value was observed for Fc1ccc(Nc2ncncc2-c2ccoc2)cc1 ?
9.18

Would you mind telling me what max response value was observed for CC(=O)N1CCC[C@@]2(CCN(c3ncccn3)C2)C1 ?
18.6

Would you mind telling me what max response value was observed for COc1ncc2ncc(=O)n(C)c2n1 ?
14.9

Would you mind telling me what max response value was observed for COC(=O)N1CCC2(CC1)CN(C(=O)Nc1cccc(C#N)c1)C2 ?
-0.334

Would you mind telling me what max response value was observed for Cn1cccc1C(=O)N1CCC[C@@]2(CCN(Cc3ccc(C#N)cc3)C2)C1 ?
7.42

Would you mind telling me what max response value was observed for COc1cccc(-c2cncnc2Nc2ccc(F)cc2)c1 ?
6.55

Would you mind telling me what max response value was observed for CC(=O)NCCNc1ccnc(-c2ccccc2C(F)(F)F)n1 ?
8.35

----------
# system: Ubiquitin carboxyl-terminal hydrolase 1 (Homo sapiens)
# protocolDescription: Inhibitors of USP1/UAF1: Pilot qHTS (AID 504865); also: nearly all actives have a fitted effect of over 35% in size
# condition: purified USP1/UAF1, Ub-rhodamine cleavage fluorescence; series mostly up to 54.9 µM
Results filed as inconclusive are left out. The source made the active and inactive calls. The call rests on the fitted dose curve; in most records, active means well fitted inhibition curve with a large enough effect; inconclusive means small, poorly fitted or top-dose-only effect; inactive means flat fitted curve, though single readings scatter.
Could you please pick one outcome from this set? yes (active), no (inactive)

What classification did O=c1cnc2cnc(N3CCNCC3)nc2n1Cc1ccc(F)cc1 end up with in this test?
no

What classification did COc1cccc(Nc2ncc3nc(-c4ccccc4)c(=O)n(Cc4cccs4)c3n2)c1 end up with in this test?
no

What classification did CN(C)c1ncc2nc(-c3cc(F)cc(F)c3)c(=O)n(CCC#N)c2n1 end up with in this test?
no

What classification did c1ccc(CNc2ncnc3ccc(-c4cccnc4)cc23)cc1 end up with in this test?
no

What classification did CN(C)c1ncc2nc(-c3cccs3)c(=O)n(CCC#N)c2n1 end up with in this test?
no

What classification did O=c1c(-c2ccc(F)cc2)nc2cnc(Oc3cccc(Cl)c3)nc2n1C1CC1 end up with in this test?
no

What classification did COc1cccc(-c2cc(N(C)Cc3ccco3)ncn2)c1 end up with in this test?
no

What classification did Cc1nc2cnc(N3CCN(C)CC3)nc2n(CCC#N)c1=O end up with in this test?
no

What classification did COc1ccc(Oc2ncc3nc(-c4cn(C)c5ccccc45)c(=O)n(C4CC4)c3n2)cc1 end up with in this test?
no

What classification did COCCn1c(=O)c(-c2ccccc2)nc2cnc(Oc3ccc(OC)cc3)nc21 end up with in this test?
no

What classification did Cc1noc(C)c1-c1nccc(NCc2cccnc2)n1 end up with in this test?
no

What classification did CS(=O)(=O)Nc1cccc(-c2ccc3ncnc(NCCN4CCOCC4)c3c2)c1 end up with in this test?
no

What classification did CN(C)Cc1ccccc1-c1nc(NC2CCNCC2)c2ccccc2n1 end up with in this test?
no

What classification did COc1ccc(Oc2ncc3nc(CCc4ccccc4)c(=O)n(C[C@H]4CCCO4)c3n2)cc1 end up with in this test?
no

What classification did COc1ccc(-c2nc3cnc(Oc4cccc(Cl)c4)nc3n(CCC#N)c2=O)cc1 end up with in this test?
no

What classification did Cc1nc2cncnc2n(Cc2ccccc2)c1=O end up with in this test?
no

What classification did CN(C)c1ccc(-c2nccc(NCCN3CCOCC3)n2)cc1 end up with in this test?
no

What classification did CN1CCN(c2ncc3ncc(=O)n(C[C@H]4CCCO4)c3n2)CC1 end up with in this test?
no

What classification did CN(C)c1ncnc2ccc(-c3cccnc3)cc12 end up with in this test?
no

What classification did COCCn1c(=O)c(C)nc2cnc(Oc3ccccc3)nc21 end up with in this test?
no

What classification did CCNc1ncc2ncc(=O)n(C3CC3)c2n1 end up with in this test?
no

What classification did O=c1cnc2cncnc2n1Cc1ccc(F)cc1 end up with in this test?
no

What classification did CN(C)C(=O)c1ccc(-c2cc(Nc3ccccc3)ncn2)cc1 end up with in this test?
no

What classification did COc1ccc(CNc2ncnc3ccc(-c4cccnc4)cc23)c(OC)c1 end up with in this test?
no

What classification did FC(F)(F)c1ccccc1-c1nccc(NCc2cccs2)n1 end up with in this test?
yes

What classification did CN1CCN(c2ncnc3ccc(-c4ccc5c(c4)OCO5)cc23)CC1 end up with in this test?
no

What classification did Cc1ccccc1-c1nccc(NCc2cccs2)n1 end up with in this test?
yes

What classification did COCCNc1ncnc2ccc(-c3ccoc3)cc12 end up with in this test?
no

What classification did c1cncc(CNc2nc(-c3ccoc3)nc3ccccc23)c1 end up with in this test?
yes

What classification did Cc1cnc(CNc2ncncc2-c2cccc(C#N)c2)cn1 end up with in this test?
no

What classification did CCNc1ncc2nc(C)c(=O)n(-c3ccc(OC)cc3)c2n1 end up with in this test?
no

What classification did COc1cccc(Nc2ncc3nc(C)c(=O)n(CCc4ccccc4)c3n2)c1 end up with in this test?
no

What classification did Cc1ccccc1-c1cc(N(C)C)ncn1 end up with in this test?
no

What classification did COc1cccc(-c2nc(NCc3ccccc3)c3ccccc3n2)c1 end up with in this test?
no

What classification did CN(C)Cc1ccccc1-c1nc(N(C)C)c2ccccc2n1 end up with in this test?
no

What classification did CN1CCN(c2ncc3nc(-c4cc(F)cc(F)c4)c(=O)n(C)c3n2)CC1 end up with in this test?
no

What classification did CN(C)Cc1ccccc1-c1nccc(N(C)C)n1 end up with in this test?
no

What classification did CN1CCN(c2nc(-c3ccccc3C(F)(F)F)nc3ccccc23)CC1 end up with in this test?
no
